These data points were gathered from patent US6506876B1.

The following molecules are listed with their measured IC50 values.
Target under test: recombinant human LTA4 hydrolase (rhLTA4H) (Homo sapiens, UniProt P09960)
Sequence (P09960 1-611): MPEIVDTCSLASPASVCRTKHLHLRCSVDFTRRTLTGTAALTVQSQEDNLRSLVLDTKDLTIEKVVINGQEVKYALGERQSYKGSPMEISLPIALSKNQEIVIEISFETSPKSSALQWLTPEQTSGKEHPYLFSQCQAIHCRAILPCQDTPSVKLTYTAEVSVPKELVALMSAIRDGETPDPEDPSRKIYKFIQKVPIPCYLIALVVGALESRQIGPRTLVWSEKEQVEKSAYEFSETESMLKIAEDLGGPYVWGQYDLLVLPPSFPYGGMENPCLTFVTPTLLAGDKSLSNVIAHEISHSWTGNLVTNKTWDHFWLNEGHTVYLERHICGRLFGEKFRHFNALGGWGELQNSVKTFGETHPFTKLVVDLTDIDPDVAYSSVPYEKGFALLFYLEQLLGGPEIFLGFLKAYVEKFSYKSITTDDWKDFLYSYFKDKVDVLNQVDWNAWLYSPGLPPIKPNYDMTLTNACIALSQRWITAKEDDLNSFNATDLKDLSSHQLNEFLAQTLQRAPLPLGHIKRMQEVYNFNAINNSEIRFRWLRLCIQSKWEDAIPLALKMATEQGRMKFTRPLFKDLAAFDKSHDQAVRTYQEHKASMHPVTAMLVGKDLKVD
Assay: Recombinant human LTA4 hydrolase assay for LTA4 hydrolase inhibitor activity
Recorded conditions: Recombinant Human LTA4 Hydrolase Assay IC50 LTA4H, recombinant hLTA4H

Consider the reported IC50 for these molecules:
Molecule | IC50
c1ccc(Cc2ccc(OCCN3CC4CCC3CC4)cc2)cc1 | 140 nM
CC(C)(O)CCNCCCOc1ccc(Cc2ccccc2)cc1 | 410 nM
CCOC(=O)CCN(C)CCCCOc1ccc(Cc2ccccc2)cc1 | 5000 nM

Input line: Entry c1ccc(Oc2ccc3c(c2)CC(CN2CCCC2)O3)cc1 (stereo not shown) needs its IC50 filled in; supply it.
Output line: 43 nM

Input line: Entry c1ccc(Cc2ccc3c(c2)CCC(CN2CCCC2)O3)cc1 (stereo not shown) needs its IC50 filled in; supply it.
Output line: 7 nM

Input line: Entry `c1ccc(COc2ccc(OCCn3cnc4ccncc43)cc2)cc1` needs its IC50 filled in; supply it.
Output line: 1800 nM

###

The following compounds are listed with their measured pIC50 values.
Target under test: recombinant human LTA4 hydrolase (rhLTA4H) (Homo sapiens)
Sequence (P09960 1-611): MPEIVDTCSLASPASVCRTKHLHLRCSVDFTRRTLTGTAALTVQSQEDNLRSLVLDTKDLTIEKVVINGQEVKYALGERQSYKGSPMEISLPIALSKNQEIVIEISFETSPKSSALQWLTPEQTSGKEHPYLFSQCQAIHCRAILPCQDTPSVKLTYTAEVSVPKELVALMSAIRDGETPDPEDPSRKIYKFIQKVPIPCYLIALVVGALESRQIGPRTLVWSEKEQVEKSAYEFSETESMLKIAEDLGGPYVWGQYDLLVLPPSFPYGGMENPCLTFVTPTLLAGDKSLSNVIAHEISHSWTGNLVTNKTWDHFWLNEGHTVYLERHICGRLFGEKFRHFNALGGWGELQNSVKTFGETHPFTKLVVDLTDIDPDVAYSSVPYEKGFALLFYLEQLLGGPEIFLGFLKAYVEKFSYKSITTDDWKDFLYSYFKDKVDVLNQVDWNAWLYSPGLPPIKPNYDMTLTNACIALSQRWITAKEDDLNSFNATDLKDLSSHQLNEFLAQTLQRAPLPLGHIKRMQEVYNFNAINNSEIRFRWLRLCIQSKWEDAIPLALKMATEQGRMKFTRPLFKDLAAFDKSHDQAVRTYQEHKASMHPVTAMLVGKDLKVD
Assay: Recombinant human LTA4 hydrolase assay for LTA4 hydrolase inhibitor activity
Recorded conditions: Recombinant Human LTA4 Hydrolase Assay IC50 LTA4H, recombinant hLTA4H
Convention used: pIC50 is expressed as -log10 of the molar concentration.

Consider the reported pIC50 for these compounds:
Compound | pIC50
CCOC(=O)C1CCCN(CCCOc2ccc(Cc3ccccc3)cc2)C1 (stereo not shown) | 5.56
COC(=O)CCNCCCOc1ccc(Cc2ccccc2)cc1 | 6.77
CC1CC(C#N)CCN1CCOc1ccc(Cc2ccccc2)cc1 (stereo not shown) | 6.52
c1ccc(Cc2ccc(OCCCn3cnc4cccnc43)cc2)cc1 | 5.24
O=C(CCNCCOc1ccc(Cc2ccccc2)cc1)OCc1ccccc1 | 5.19
CCOC(=O)[C@@H]1CCN(CCOc2ccc(Cc3ccccc3)cc2)[C@H](C)C1 (relative stereo) | 5.60

Input line: Tell me its pIC50 on recombinant human LTA4 hydrolase (rhLTA4H) (Homo sapiens): `c1ccc2ncc(COc3ccc(OCCN4CCCC4)cc3)cc2c1`
Output line: 6.48

Input line: Tell me its pIC50 on recombinant human LTA4 hydrolase (rhLTA4H) (Homo sapiens): `NC(=O)C1CCN(CCOc2ccc(Cc3cccnc3)cc2)CC1`
Output line: 4.70

Input line: Tell me its pIC50 on recombinant human LTA4 hydrolase (rhLTA4H) (Homo sapiens): COC(=O)C1CCCN1CCOc1ccc(Cc2ccccc2)cc1 (stereo not shown)
Output line: 6.35

Input line: Tell me its pIC50 on recombinant human LTA4 hydrolase (rhLTA4H) (Homo sapiens): c1ccc(Cc2ccc3c(c2)CC(Cn2cnc4cnccc42)O3)cc1 (stereo not shown)
Output line: 6.39

Input line: Tell me its pIC50 on recombinant human LTA4 hydrolase (rhLTA4H) (Homo sapiens): `COC(=O)c1cc(Cc2ccccc2)ccc1OCCN1CCCC1`
Output line: 5.15

Input line: Tell me its pIC50 on recombinant human LTA4 hydrolase (rhLTA4H) (Homo sapiens): c1ccc(Cc2ccc3c(c2)CC(CN2CCCC2)O3)cc1 (stereo not shown)
Output line: 7.96
